The measurements presented in this section are drawn from patent US4464385A.

As shown below, each of these molecules has a reported % of Total Eyes, - (Normal) value.
# System: cataracts in rats
# test: Prevention or retardation of cataracts in galactose-fed rats
# Assay type: in vivo, rat
# measurement-parameters: Study Day 20; 30% galactose diet; A,C,E 0.0025%, B,D 0.01%
Express the result in % but write the number alone.

Completed entries (count: 3):
CSc1ccc2c(c1)C1(CCO2)NC(=O)NC1=O (stereo not shown) [A]; 0
CSc1ccc2c(c1)C1(CCO2)NC(=O)NC1=O (stereo not shown) [B]; 0
O=C1NC(=O)C2(CCOc3ccc(F)cc32)N1 (stereo not shown); 12.5

Now for the molecule whose % of Total Eyes, - (Normal) we want.
GET /values?readout=% of Total Eyes, - (Normal)&item= C[S+]([O-])c1ccc2c(c1)C1(CCO2)NC(=O)NC1=O (stereo not shown)
0

---

# Test system: cataracts in rats
# test: Prevention or retardation of cataracts in galactose-fed rats
# Format: in vivo, rat
# measurement-parameters: Study Day 10; 30% galactose diet; A,C,E 0.0025%, B,D 0.01%
# Protocol: The compounds to be tested were: Test compound/diet mixtures were formulated as follows: […] Similarly, the 0.01% level was designed to provide a drug concentration of 20 mg per kilogram per day. […] Sufficient amounts of test compound/diet mixture were maintained in the food hoppers to allow the animals to eat ad libitum. All aliquots of test compound/diet mixture added to the food hoopers were weighed and the weights, as well as day of addition, recorded. […]
measure: % of Total Eyes, + (vacuole) (%)
Express the result in % but write the number alone.

O=C1NC(=O)C2(CCOc3ccc(F)cc32)N1 (stereo not shown); 0

Look up % of Total Eyes, + (vacuole) with cataracts in rats for this compound: CSc1ccc2c(c1)C1(CCO2)NC(=O)NC1=O (stereo not shown) [A]
62.5

Look up % of Total Eyes, + (vacuole) with cataracts in rats for this compound: CSc1ccc2c(c1)C1(CCO2)NC(=O)NC1=O (stereo not shown) [B]
25.0

Look up % of Total Eyes, + (vacuole) with cataracts in rats for this compound: C[S+]([O-])c1ccc2c(c1)C1(CCO2)NC(=O)NC1=O (stereo not shown)
58.4

---

# Tested on: cataracts in rats
# test: Prevention or retardation of cataracts in galactose-fed rats
# Format: in vivo, rat
# measurement-parameters: Study Day 14; 30% galactose diet; A,C,E 0.0025%, B,D 0.01%
As shown below, each of these compounds has a reported % of Total Eyes, + (vacuole) value.
Express the result in % but write the number alone.

C[S+]([O-])c1ccc2c(c1)C1(CCO2)NC(=O)NC1=O (stereo not shown) [D]; 62.5
CSc1ccc2c(c1)C1(CCO2)NC(=O)NC1=O (stereo not shown) [A]; 66.7
CSc1ccc2c(c1)C1(CCO2)NC(=O)NC1=O (stereo not shown) [B]; 78.0

Now for the compound whose % of Total Eyes, + (vacuole) we want.
Look up % of Total Eyes, + (vacuole) with cataracts in rats for this compound: O=C1NC(=O)C2(CCOc3ccc(F)cc32)N1 (stereo not shown) [E]
0

---

As shown below, each of these compounds has a reported % of Total Eyes, + (vacuole) value.
# System: cataracts in rats
# test: Prevention or retardation of cataracts in galactose-fed rats
# Assay type: in vivo, rat
# measurement-parameters: Study Day 16; 30% galactose diet; A,C,E 0.0025%, B,D 0.01%
Express the result in % but write the number alone.

Completed entries (count: 3):
CSc1ccc2c(c1)C1(CCO2)NC(=O)NC1=O (stereo not shown) [A]; 50.0
CSc1ccc2c(c1)C1(CCO2)NC(=O)NC1=O (stereo not shown) [B]; 83.3
C[S+]([O-])c1ccc2c(c1)C1(CCO2)NC(=O)NC1=O (stereo not shown); 45.8

Now for the compound whose % of Total Eyes, + (vacuole) we want.
GET /values?readout=% of Total Eyes, + (vacuole)&item= O=C1NC(=O)C2(CCOc3ccc(F)cc32)N1 (stereo not shown)
0

---

# System: cataracts in rats
# test: Prevention or retardation of cataracts in galactose-fed rats
# Type: in vivo, rat
# measurement-parameters: Study Day 28; 30% galactose diet; A,C,E 0.0025%, B,D 0.01%
As shown below, each of these compounds has a reported Number of Eyes Observed, S (snowflake) value.
Express the result in eyes but write the number alone.

C[S+]([O-])c1ccc2c(c1)C1(CCO2)NC(=O)NC1=O (stereo not shown); 16
CSc1ccc2c(c1)C1(CCO2)NC(=O)NC1=O (stereo not shown) [A]; 20
CSc1ccc2c(c1)C1(CCO2)NC(=O)NC1=O (stereo not shown) [B]; 22

GET /values?readout=Number of Eyes Observed, S (snowflake)&item= O=C1NC(=O)C2(CCOc3ccc(F)cc32)N1 (stereo not shown)
22

---

# Tested on: cataracts in rats
# test: Prevention or retardation of cataracts in galactose-fed rats
# Assay type: in vivo, rat
# measurement-parameters: Study Day 18; 30% galactose diet; A,C,E 0.0025%, B,D 0.01%
measure: % of Total Eyes, S (snowflake) (%)
Express the result in % but write the number alone.

Completed entries (count: 3):
CSc1ccc2c(c1)C1(CCO2)NC(=O)NC1=O (stereo not shown) [B]; 0
O=C1NC(=O)C2(CCOc3ccc(F)cc32)N1 (stereo not shown); 0
C[S+]([O-])c1ccc2c(c1)C1(CCO2)NC(=O)NC1=O (stereo not shown); 37.5

Look up % of Total Eyes, S (snowflake) with cataracts in rats for this compound: CSc1ccc2c(c1)C1(CCO2)NC(=O)NC1=O (stereo not shown) [A]
66.7

---

As shown below, each of these compounds has a reported % of Total Eyes, + (vacuole) value.
# Tested on: cataracts in rats
# test: Prevention or retardation of cataracts in galactose-fed rats
# Type: in vivo, rat
# measurement-parameters: Study Day 20; 30% galactose diet; A,C,E 0.0025%, B,D 0.01%
Express the result in % but write the number alone.

C[S+]([O-])c1ccc2c(c1)C1(CCO2)NC(=O)NC1=O (stereo not shown); 29.2

GET /values?readout=% of Total Eyes, + (vacuole)&item= O=C1NC(=O)C2(CCOc3ccc(F)cc32)N1 (stereo not shown)
4.2

GET /values?readout=% of Total Eyes, + (vacuole)&item= CSc1ccc2c(c1)C1(CCO2)NC(=O)NC1=O (stereo not shown) [B]
91.7

GET /values?readout=% of Total Eyes, + (vacuole)&item= CSc1ccc2c(c1)C1(CCO2)NC(=O)NC1=O (stereo not shown) [A]
25.0

---

# Tested on: cataracts in rats
# test: Prevention or retardation of cataracts in galactose-fed rats
# Format: in vivo, rat
# measurement-parameters: Study Day 8; 30% galactose diet; A,C,E 0.0025%, B,D 0.01%
As shown below, each of these compounds has a reported Number of Eyes Observed, - (Normal) value.

GET /values?readout=Number of Eyes Observed, - (Normal)&item= CSc1ccc2c(c1)C1(CCO2)NC(=O)NC1=O (stereo not shown) [A]
2 eyes

GET /values?readout=Number of Eyes Observed, - (Normal)&item= CSc1ccc2c(c1)C1(CCO2)NC(=O)NC1=O (stereo not shown) [B]
10 eyes

GET /values?readout=Number of Eyes Observed, - (Normal)&item= O=C1NC(=O)C2(CCOc3ccc(F)cc32)N1 (stereo not shown)
24 eyes

GET /values?readout=Number of Eyes Observed, - (Normal)&item= C[S+]([O-])c1ccc2c(c1)C1(CCO2)NC(=O)NC1=O (stereo not shown)
4 eyes

---

# Test system: cataracts in rats
# test: Prevention or retardation of cataracts in galactose-fed rats
# Format: in vivo, rat
# measurement-parameters: Study Day 3; 30% galactose diet; A,C,E 0.0025%, B,D 0.01%
measure: Number of Eyes Observed, - (Normal) (eyes)
Express the result in eyes but write the number alone.

Completed entries (count: 2):
O=C1NC(=O)C2(CCOc3ccc(F)cc32)N1 (stereo not shown) [E]; 24
CSc1ccc2c(c1)C1(CCO2)NC(=O)NC1=O (stereo not shown) [A]; 24

GET /values?readout=Number of Eyes Observed, - (Normal)&item= C[S+]([O-])c1ccc2c(c1)C1(CCO2)NC(=O)NC1=O (stereo not shown) [D]
22

GET /values?readout=Number of Eyes Observed, - (Normal)&item= CSc1ccc2c(c1)C1(CCO2)NC(=O)NC1=O (stereo not shown) [B]
24

---

As shown below, each of these compounds has a reported % of Total Eyes, S (snowflake) value.
# Tested on: cataracts in rats
# test: Prevention or retardation of cataracts in galactose-fed rats
# Type: in vivo, rat
# measurement-parameters: Study Day 28; 30% galactose diet; A,C,E 0.0025%, B,D 0.01%
Provide a numeric answer, followed by its unit.

Completed entries (count: 3):
O=C1NC(=O)C2(CCOc3ccc(F)cc32)N1 (stereo not shown); 91.7%
C[S+]([O-])c1ccc2c(c1)C1(CCO2)NC(=O)NC1=O (stereo not shown); 66.7%
CSc1ccc2c(c1)C1(CCO2)NC(=O)NC1=O (stereo not shown) [B]; 91.7%

Now for the compound whose % of Total Eyes, S (snowflake) we want.
GET /values?readout=% of Total Eyes, S (snowflake)&item= CSc1ccc2c(c1)C1(CCO2)NC(=O)NC1=O (stereo not shown) [A]
83.3%
